Target: human factor Xa (FXa) (Homo sapiens, UniProt P00742)
Sequence (P00742 235-488 limits assumed): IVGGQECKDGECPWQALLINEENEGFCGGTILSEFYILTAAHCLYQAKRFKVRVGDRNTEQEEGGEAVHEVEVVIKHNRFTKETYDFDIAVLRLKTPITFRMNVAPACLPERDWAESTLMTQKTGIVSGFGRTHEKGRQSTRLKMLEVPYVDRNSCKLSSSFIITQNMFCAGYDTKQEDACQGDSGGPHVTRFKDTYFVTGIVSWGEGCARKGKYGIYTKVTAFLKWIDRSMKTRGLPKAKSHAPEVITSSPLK
Sequence (P00742 41-179 partner limits assumed): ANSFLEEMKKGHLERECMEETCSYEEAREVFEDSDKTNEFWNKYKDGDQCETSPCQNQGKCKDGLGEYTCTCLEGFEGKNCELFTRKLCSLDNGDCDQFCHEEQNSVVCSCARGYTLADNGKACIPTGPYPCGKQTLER
pIC50: −log10 of the molar value.
Assay metric: pIC50

* CSc1nc(NC(=O)c2ccc(Cl)s2)c(C(=O)Nc2ccc(N3CCOC3=N)cc2)s1 [Example 24, methanesulfonate] | 9.04

(P) Cc1cc(NC(=O)c2ccc(Cl)s2)c(C(=O)Nc2ccc(N3CCOC3=N)cc2)cc1N(C)C [Example 20, methanesulfonate]
(Q) N=C1OCCN1c1ccc(NC(=O)c2ccncc2NC(=O)c2ccc(Cl)s2)cc1 [Example 11, methanesulfonate]
(R) N=C1OCCN1c1ccc(NC(=O)c2cscc2NC(=O)c2ccc(Cl)s2)cc1 [Example 16, methanesulfonate]
(S) N=C1OCCN1c1ccc(NC(=O)c2ccc(C(F)(F)F)cc2NC(=O)c2ccc(Cl)s2)cc1 [Example 3, methanesulfonate]
query: Could you please sort these 4 entries by pIC50 from high to low? State the ranking by listing the labels in the requested order.
result: P, S, R, Q
(P: 9.18, S: 8.96, R: 8.66, Q: 8.20)
